These measurements were taken from the nanobody polyreactivity screen of Harvey et al. (2022).

Assay: yeast display, Sf9 membrane polyspecificity reagent, FACS + sequencing; frameworks hold sequencing errors
reportedMetric: polyreactivity (PSR sort gate)

Study these solved cases before continuing.
QVQLVETGGGLVQAGGSLRLSCAASGRIFLGYAMGCYRQAPGKERELVAAISGRGGRTNYADSVKGRFTISRDNAKNTVYLQMNSLKPEDTAVYYCATVPYTASRYEYWGQGTQVTVSS
high polyreactivity
QVQLVESGGGLVQAGGSLRLSCAASGSIFLLYARGWYRQAPGKERELVAAISRGGSTYYADSVKGRFTISRDNAKNTVYLQMNSLKPEDTAVYYCAAKLYYGYDWGQGTQVTVSS
low polyreactivity
QVQLVESGGGLVQAGGSLRLSCAASGFIFYYYAMGWYIQAPGKERELVAAIDWDGDRTYYADSVKGRFTISRDNAKNTVYLQMNSLKPEDTAVYYCAAEWPVNFDYWGQGTQVTVSS
low polyreactivity
QVQLVESGGGLVQAGGSLRLSCAASGFTFTDYAMGWYRRAPGKESELVAAISSGGSTNYADSVKGRFTISRDNAKNTVYLQMNSLKPEDTAVYYCAAYYVYRAPVRYEYWGQGTQVTVSS
high polyreactivity
QVQLVESGGGLVQAGGSLRLSCAASGRTFRRYTMGWYRQAPGKERELVATISWSGGTTYADSVKGRFTISRDNAKNTVYLQMNSLKPEDTAVYFCAAVSYVYRYYWGQGTQVTVSS
low polyreactivity
QVQLVESGGGLVQAGGSLRLSCAASGRIFGSYAMGWYRQAPGKERELVAAITTDDSTNYADSVKGRFTISRDNAKNTVYLQMNSLKPEDTAVYYCNAERWDELFDSWGQVTQVTVSS
low polyreactivity
QVQLVESGGGLVQAGGSVRLSCAASGGTFKANAMGWYRQAPGKERELVAAISWSGGSTYYADSVKGRFTISRDNAKNSVYLQMNSLKPEDTAVYYCRYWKYRSYDYWGQGTQVTVSS
high polyreactivity
QVQLQESGGGLVQAGGDLRLSCAASGNIFRDYIMGWYRQAPGKELEFVAGIDRGANTNYADSVKGRFTISRDNAKNTVYLQMNSLKPEDTAVYYCAVHTAIVPDFIYWGQGTQVTVSS
low polyreactivity

Look at each sequence and report its polyreactivity (PSR sort gate).
1. QVQLVESSGGLVQAGGSLRLSCAASGITFYYYAMGWYRQAPGKERELVAVITGNGGRTYYADSVKGRFTISRDNAKNTVYLQMNSLKPEDTAVYYCAALYDGIYDSWGQGTQVTVSS
2. QVQLVESGGGLVQAGGSLRLSCAASGITFGYNAMGWYIQAPGKERELVASISYSGDSTYYADSVKGRFTISRDNAKNTVYLLMNSLKPEDTAVYYCNVRNRPGGEINDYDYWGQGTQVTVSS
3. QVQLVESGGGLVHAGGSLRLSCAASGSIFAGNAMGWYRQAPGNERELVAGISRSGGSTNYADSVKGRFTISRDNAKNTVYLQMIRLKPEDTAVYYFAASATPSGVGMDYWGQGTQVNVSS

1. high polyreactivity
2. low polyreactivity
3. low polyreactivity

----------
Assay: yeast display, Sf9 membrane polyspecificity reagent, FACS + sequencing; frameworks hold sequencing errors
reportedMetric: polyreactivity (PSR sort gate)

QVQLVESGGVLVQAGGSLRLSCAASGFIFSEYAMGWYRHAPGKERELVAAISRSGGRTYYADSVKGRFTISRDNAKNTVYLQMNSLKPEDTAVYYCAAVWWWYYNHYYYWGQGTLVTVSS
high polyreactivity
QVQLVESGGGLVQAGGSLRLSCAASGSTFWYYGMGWYRQAPGKERELVAAITRGGSTYYADSVKGRFTISRDNAKNTVYLQMISLNPEDTAVYYCAAGISVRWSPSYYYWGQGTQVTVSS
high polyreactivity
